tested on: NCI/ADR-RES complex spheroid viability; assay: Anticancer human tumor NCI/ADR-RES cell line growth inhibition; settings: second compound 0.316 µM; first compound 0.001 µM; active compounds read low;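 note: spheroids exposed to compounds for 7 days; 100% = DMSO vehicle treated spheroids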
QUANTITY: viability, T/C

INSERT INTO assay_data (molecule, result) VALUES
  ('CC[C@@]1(O)C(=O)OCc2c1cc1n(c2=O)Cc2cc3c(CN(C)C)c(O)ccc3nc2-1 + NC1CC1c1ccc(-c2cccc(O)c2)cc1', '103%'),
  ('CC(C)CC(NC(=O)CNC(=O)c1cc(Cl)ccc1Cl)B1OC(=O)CC(CC(=O)O)(C(=O)O)O1 (centres undefined) + NC1CC1c1ccc(-c2cccc(O)c2)cc1', '104%'),
  ('CC[C@@]1(O)C(=O)OCc2c1cc1n(c2=O)Cc2cc3c(CN(C)C)c(O)ccc3nc2-1 + NC1CCC(NC2CC2c2ccccc2)CC1', '116%');

Problem: Bench note: what viability, T/C did Cn1ncnc1C1c2n[nH]c(=O)c3cc(F)cc(c23)NC1c1ccc(F)cc1 (centres undefined) + NC1CC1c1ccc(-c2cccc(O)c2)cc1 show?
Result: 107%

* * *

Hi there, I'd appreciate the recorded viability, T/C for every entry that follows.
tested on: NCI/ADR-RES complex spheroid viability; test: Anticancer human tumor NCI/ADR-RES cell line growth inhibition; conditions: second compound 10 µM; first compound 0.01 µM; active compounds read low;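 note: spheroids exposed to compounds for 7 days; 100% = DMSO vehicle treated spheroids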
Answers are plain numbers, in %.

INSERT INTO assay_data (molecule, system, quantity, endpoint_unit, result) VALUES
  ('CC(C)CC(NC(=O)CNC(=O)c1cc(Cl)ccc1Cl)B1OC(=O)CC(CC(=O)O)(C(=O)O)O1 (centres undefined) + NC1CCC(NC2CC2c2ccccc2)CC1', 'NCI/ADR-RES complex spheroid viability', 'viability, T/C', '%', 62.1),
  ('O=C(C=Cn1cnc(-c2cc(C(F)(F)F)cc(C(F)(F)F)c2)n1)NNc1cnccn1 + NC1CCC(NC2CC2c2ccccc2)CC1', 'NCI/ADR-RES complex spheroid viability', 'viability, T/C', '%', 20.5),
  ('CC(C)CC(NC(=O)CNC(=O)c1cc(Cl)ccc1Cl)B1OC(=O)CC(CC(=O)O)(C(=O)O)O1 (centres undefined) + NC1CC1c1ccc(-c2cccc(O)c2)cc1', 'NCI/ADR-RES complex spheroid viability', 'viability, T/C', '%', 64.9);

Can you give me viability, T/C for all of these, one by one?
1. CC(C)CC(NC(=O)C(Cc1ccccc1)NC(=O)c1cnccn1)B(O)O (centres undefined) + NC1CC1c1ccc(-c2cccc(O)c2)cc1
2. CC[C@@]1(O)C(=O)OCc2c1cc1n(c2=O)Cc2cc3c(CN(C)C)c(O)ccc3nc2-1 + NC1CC1c1ccc(-c2cccc(O)c2)cc1

Result:
59.6
57.1

* * *

system: NCI/ADR-RES complex spheroid viability; experiment: Anticancer human tumor NCI/ADR-RES cell line growth inhibition; conditions: second compound 0.1 µM; first compound 0.1 µM; active = viability on the fitted dose curve at most 10% of control; inactive = the rest;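 note: spheroids exposed to compounds for 7 days; 100% = DMSO vehicle treated spheroids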
Give one outcome, nothing more. List: T for active, F for inactive

Example entries begin here.
INSERT INTO results (compound, assigned_label) VALUES
  ('Cn1ncnc1C1c2n[nH]c(=O)c3cc(F)cc(c23)NC1c1ccc(F)cc1 (stereo unspecified) + NC1CC1c1ccc(-c2cccc(O)c2)cc1', 'F'),
  ('CC(C)c1c(-c2ccccc2)nc2c(C#N)c[nH]n2c1=O + NC1CCC(NC2CC2c2ccccc2)CC1', 'F'),
  ('COc1cc(Nc2ncc3c(n2)-c2ccc(Cl)cc2C(c2c(F)cccc2OC)=NC3)ccc1C(=O)O + NC1CC1c1ccc(-c2cccc(O)c2)cc1', 'F');

Problem: Per the assay record, what outcome was assigned to O=C(c1cc(Cc2n[nH]c(=O)c3ccccc23)ccc1F)N1CCN(C(=O)C2CC2)CC1 + NC1CCC(NC2CC2c2ccccc2)CC1 ?
Result: F

Problem: Per the assay record, what outcome was assigned to CC(C)CC(NC(=O)CNC(=O)c1cc(Cl)ccc1Cl)B1OC(=O)CC(CC(=O)O)(C(=O)O)O1 (stereo unspecified) + NC1CC1c1ccc(-c2cccc(O)c2)cc1 ?
Result: T

Problem: Per the assay record, what outcome was assigned to CC(C)c1c(-c2ccccc2)nc2c(C#N)c[nH]n2c1=O + NC1CC1c1ccc(-c2cccc(O)c2)cc1 ?
Result: F

Problem: Per the assay record, what outcome was assigned to COc1ccc([C@@H](O)c2cc(-c3ncnc4cc(N5CCOCC5)ccc34)c(F)cc2Cl)nn1 + NC1CCC(NC2CC2c2ccccc2)CC1 ?
Result: F

Problem: Per the assay record, what outcome was assigned to O=C(c1cc(Cc2n[nH]c(=O)c3ccccc23)ccc1F)N1CCN(C(=O)C2CC2)CC1 + NC1CC1c1ccc(-c2cccc(O)c2)cc1 ?
Result: F

Problem: Per the assay record, what outcome was assigned to COc1ccc([C@@H](O)c2cc(-c3ncnc4cc(N5CCOCC5)ccc34)c(F)cc2Cl)nn1 + NC1CC1c1ccc(-c2cccc(O)c2)cc1 ?
Result: F

Problem: Per the assay record, what outcome was assigned to CC[C@@]1(O)C(=O)OCc2c1cc1n(c2=O)Cc2cc3c(CN(C)C)c(O)ccc3nc2-1 + NC1CC1c1ccc(-c2cccc(O)c2)cc1 ?
Result: T
